Parameter: Kd. Scope: all listed entries.
# assay_system: IL36R
# procedure_summary: Kd (SPR)
The response must be a number in nM with no trailing unit.

Previously resolved entries follow.
{"binder": "unnamed (protein) chain 1: QVQLVQSGAEVKKPGASVKVSCKASGYSFTSSWIHWVKQAPGQGLEWMGEIYPGNSNTNYNENFRNKVTMTVDTSISTAYMELSRLRSDDTAVYYCTRVQYGEPYFDYWGQGTLVTVSS chain 2: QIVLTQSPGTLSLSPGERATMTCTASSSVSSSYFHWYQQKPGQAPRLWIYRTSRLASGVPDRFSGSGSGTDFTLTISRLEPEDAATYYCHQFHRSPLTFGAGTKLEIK", "value_kind": "Kd", "recorded_value": 1.16}
{"binder": "unnamed (protein) chain 1: QVQLVQSGAEVKKPGASVKVSCKASGYTFTSNWIHWVKQAPGQGLEWMGEIYPGNSNTNYNENFRNKVTMTVDTSISTAYMELSRLRSDDTAVYYCTRVRYGEPWFDYWGQGTLVTVSS chain 2: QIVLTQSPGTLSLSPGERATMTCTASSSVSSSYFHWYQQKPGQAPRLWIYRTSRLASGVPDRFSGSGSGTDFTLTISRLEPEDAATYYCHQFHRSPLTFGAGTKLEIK", "value_kind": "Kd", "recorded_value": 31.8}

Next up:
Suppose we examine the binder unnamed (protein) chain 1: QVQLVQSGAEVKKPGASVKVSCKASGYSFTSSWIHWVKQAPGQGLEWMGEINPGNVRTNYNENFRNKVTMTVDTSISTAYMELSRLRSDDTAVYYCTRVVYGEPYFDYWGQGTLVTVSS chain 2: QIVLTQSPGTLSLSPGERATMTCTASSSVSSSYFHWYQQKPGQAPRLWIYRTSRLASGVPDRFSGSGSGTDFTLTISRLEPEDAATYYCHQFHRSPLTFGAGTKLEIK ; what Kd value has been reported?
0.649
